- MEASUREMENT_TARGET: Calcium-dependent protein kinase 1 (Plasmodium falciparum (isolate 3D7))
- EXPERIMENT_SUMMARY: PfCDPK1 kinase inhibitors, biochemical, TCAMS library (AID 1159585);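 note: inhibitors leave more ATP so luminescence rises with inhibition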
- TEST_CONDITIONS: recombinant PfCDPK1, Kinase-Glo ATP depletion luminescence
ENDPOINT_LABEL: IC50

Some molecules with known IC50 results, for comparison:
CC(c1cccc(Nc2nccc(-c3c(-c4cccc(NC(=O)c5c(F)cccc5F)c4)nn4ccccc34)n2)c1)S(C)(=O)=O (centres undefined) | 21 nM
CS(=O)(=O)Cc1ccc(Nc2nccc(-c3c(-c4cccc(NC(=O)C5CCCCC5)c4)nn4ncccc34)n2)cc1 | 37 nM
COc1ccc(-c2cnn3ccc(Nc4cc(OC)c(OC)c(OC)c4)nc23)cc1OC | 157 nM

Prompt: Quickly give me recorded IC50 for CNC(=O)c1ccccc1Nc1nc(Nc2ccc(CCN3CCN(C)CC3)cc2)ncc1Cl
Response: 47 nM

Prompt: Identify the reported IC50 for the following entry. CCN(CC)CCOc1ccc(Nc2ncc3cc(-c4c(Cl)cccc4Cl)c(=O)n(C)c3n2)cc1
Response: 780 nM

Prompt: Quickly give me recorded IC50 for O=c1[nH]ccc2nc(N[C@@H]3CCNC3)nc(Nc3cc(Cl)cc(Cl)c3)c12
Response: 33 nM

Prompt: State its IC50 for this molecule: CCn1c(-c2nonc2N)nc2c(-c3cccc(NC(=O)Nc4ccccc4Cl)c3)ncc(OCCCN)c21
Response: 72 nM

Prompt: Answer with the recorded IC50 of N#CCc1ccc(Nc2nccc(Nc3ccc(Oc4ccccc4)cc3)n2)cc1 only.
Response: 798 nM

Prompt: Answer with reported IC50 of CN(C)CCNCc1ccc(-c2ccc3c(Nc4ccc(Oc5ccccc5)cc4)ccnc3c2)o1
Response: 681 nM
